tested on: rice; test: Test B pre-/postemergence herbicide test; format: in vivo, Oryza sativa; conditions: 125 g ai/ha; 0 = no effect, 100 = complete control; preemergence
result-type: Rice plant response rating (0 to 100 scale)

> print(dat)
                                    compound  target.system  experimental.result
 1  CCNC(=O)c1cccc(NC(=O)c2sc(C(C)(C)C)nc2CC)n1 [Compound 213]           rice                    0
 2  CCc1nn(C(C)(C)C)cc1C(=O)Nc1ccc(F)c(C(=O)N(CC)CC)c1 [Compound 240]           rice                    0
 3  CCNC(=O)c1cccc(NC(=O)c2cn(C(C)(C)C)nc2C)c1 [Compound 183]           rice                    0
 4  C=CCNC(=O)c1cccc(NC(=O)c2sc(C(C)(C)C)nc2CC)c1 [Compound 207]           rice                   50
 5  CCOC(=O)c1cc(NC(=O)c2cc(C(C)(C)C)nn2CC)c(F)cc1F [Compound 250]           rice                    0
 6  CCc1nn(C(C)(C)C)cc1C(=O)Nc1cc(C(=O)N(C)C)ccn1 [Compound 293]           rice                   90
 7  COC(=O)c1cccc(NC(=O)c2sc(C(C)(C)C)nc2C)c1 [Compound 197]           rice                    0
 8  CCNC(=O)c1cccc(NC(=O)c2sc(C(C)(C)C)nc2C)c1 [Compound 198]           rice                   30
 9  CCN(C)C(=O)c1ccc(F)c(NC(=O)C2CC(C(C)(C)C)=NN2CC)c1 (racemic) [Compound 307]           rice                   80
10  CCNC(=O)c1cccc(NC(=O)c2cn(C(C)(C)C)nc2CC)c1 [Compound 181]           rice                   40
11  CCc1cn(C(C)(C)C)nc1C(=O)Nc1cc(C(=O)N(CC)CC)ccn1 [Compound 234]           rice                    0
12  CCc1nc(C(C)(C)C)sc1C(=O)Nc1cccc(C(=O)NCC(C)C)c1 [Compound 211]           rice                    0
13  CCNC(=O)c1cccc(NC(=O)c2nn(C(C)(C)C)cc2Cl)c1 [Compound 219]           rice                    0
14  CCn1nc(C(C)(C)C)cc1C(=O)Nc1cncc(C(=O)N(C)C)c1 [Compound 258]           rice                   20
15  CCn1nc(C2(C)CC2)cc1C(=O)Nc1cccc(C(=O)N(C)C)c1 [Compound 303]           rice                   70

* * *

tested on: Surinam grass; assay: Test B pre-/postemergence herbicide test; type: in vivo, Urochloa decumbens; details: preemergence, 125 g ai/ha; 0 to 100 scale, 0 is no effect, 100 is complete control
Recorded Plant response rating, Surinam Grass, one value per entry.
result-type: Plant response rating, Surinam Grass

> print(dat)
                              line.notation                           result.type  experimental.result
1  CC(=NO)c1cccc(NC(=O)c2cc(C(C)(C)C)nn2C(C)C)c1  Plant response rating, Surinam Grass                   10
2  CCNC(=O)c1cc(NC(=O)c2cc(C(C)(C)C)nn2CC)ccc1F  Plant response rating, Surinam Grass                   30
3  CCn1nc(C(C)(C)C)cc1C(=O)Nc1cccc(C(=O)OCC(F)(F)F)c1  Plant response rating, Surinam Grass                    0
4  CCOC(=O)c1ccc(F)c(NC(=O)c2cc(C(C)(C)C)nn2CC)c1  Plant response rating, Surinam Grass                   40
5  C#CCNC(=O)c1cccc(NC(=O)c2cc(C(C)(C)C)nn2CC)c1  Plant response rating, Surinam Grass                   20
6  CCCCn1nc(C(C)(C)C)cc1C(=O)Nc1cccc(C(C)=NO)c1  Plant response rating, Surinam Grass                    0
7  C=Cn1nc(C(C)(C)C)cc1C(=O)Nc1cccc(C(C)=O)c1  Plant response rating, Surinam Grass                   50
8  CCN(C)C(=O)c1cccc(NC(=O)c2cc(C(C)(C)C)nn2CC)c1  Plant response rating, Surinam Grass                   10

* * *

tested on: lambsquarters; test: Test B pre-/postemergence herbicide test; assay type: in vivo, Chenopodium album; conditions: Preemergence, 500 g ai/ha; scale 0 to 100
result-type: Lambsquarters plant response rating

> print(dat)
                              line.notation  experimental.result
1  C=Cn1nc(C(C)(C)C)cc1C(=O)Nc1cccc(C(=O)NCC)c1                  100
2  C=Cn1nc(C(C)(C)C)cc1C(=O)Nc1cccc(C(=O)NCC(F)(F)F)c1                  100
3  CCN(C)C(=O)c1cccc(NC(=O)c2cc(C(C)(C)C)nn2CC)c1                   90
4  C#CCn1nc(C(C)(C)C)cc1C(=O)Nc1cccc(C(=O)NCC)c1                  100

* * *

tested on: wheat; test: Test B postemergence herbicide test; format: in vivo, Triticum aestivum; set-up: key: 0 = no effect, 100 = complete control; conditions: postemergence, 500 g ai/ha; visual rating, scale 0 (no effect) to 100 (complete control)
result-type: Wheat plant response rating

> print(dat)
                                    compound  experimental.result
 1  C=CCNC(=O)c1ccc(F)c(NC(=O)c2sc(CC)nc2C(C)(C)C)c1 [Compound 237]                   20
 2  CCn1nc(C(C)(C)C)cc1C(=O)Nc1cccc(C(N)=O)n1 [Compound 162]                   10
 3  CCNC(=O)c1cccc(NC(=O)c2cn(C(C)(C)C)nc2C)c1 [Compound 183]                    0
 4  CCc1nc(C(C)(C)C)sc1C(=O)Nc1cccc(C(=O)NCC(F)(F)F)c1 [Compound 206]                   20
 5  CCn1nc(C(C)(C)C)cc1C(=O)Nc1nc(OC)cc(OC)n1 [Compound 166]                    0
 6  CCc1cn(C(C)(C)C)nc1C(=O)Nc1cc(C(=O)N(CC)CC)ccn1 [Compound 234]                   10
 7  CCNC(=O)c1cccc(NC(=O)c2cn(C(C)(C)C)nc2CC)c1 [Compound 181]                    0
 8  COC(=O)c1cccc(NC(=O)c2sc(C(C)(C)C)nc2C)c1 [Compound 197]                   10
 9  CCn1nc(C(C)(C)C)cc1C(=O)Nc1cc(C(=O)NCCOC)ccn1 [Compound 161]                   10
10  CCNC(=O)c1cccc(NC(=O)c2sc(C(C)(C)C)nc2CC)n1 [Compound 213]                   30
11  CCn1nc(C(C)(C)C)cc1C(=O)Nc1cc(C(=O)N2CC=CC2)ccn1 [Compound 142]                   10

* * *

Plant response rating (0 = no effect, 100 = complete control), Kochia for assorted molecules
tested on: kochia; assay: Test C pre-/postemergence herbicide test; format: in vivo, Kochia scoparia; conditions: 125 g ai/ha; preemergence
result-type: Plant response rating (0 = no effect, 100 = complete control), Kochia

> print(dat)
                              line.notation  experimental.result
1  CCNC(=O)c1cccc(NC(=O)c2nn(C(C)(C)C)nc2C)c1                   80
2  CCn1nc2c(c1C(=O)Nc1cc(C(=O)N(C)C)ccc1F)CCC2(C)C                   85
3  C=CCNC(=O)c1cccc(NC(=O)c2nn(C(C)(C)C)nc2CC)c1                   75
4  CCc1nn(C(C)(C)C)nc1C(=S)Nc1cccc(C(=S)N(C)C)c1                   45
5  CCc1nn(C(C)(C)C)nc1C(=O)Nc1cccc(C(=S)N(C)C)c1                  100
